# Target Under Test: ERRγ (Homo sapiens, UniProt P62508)
# Sequence (P62508 whole entry): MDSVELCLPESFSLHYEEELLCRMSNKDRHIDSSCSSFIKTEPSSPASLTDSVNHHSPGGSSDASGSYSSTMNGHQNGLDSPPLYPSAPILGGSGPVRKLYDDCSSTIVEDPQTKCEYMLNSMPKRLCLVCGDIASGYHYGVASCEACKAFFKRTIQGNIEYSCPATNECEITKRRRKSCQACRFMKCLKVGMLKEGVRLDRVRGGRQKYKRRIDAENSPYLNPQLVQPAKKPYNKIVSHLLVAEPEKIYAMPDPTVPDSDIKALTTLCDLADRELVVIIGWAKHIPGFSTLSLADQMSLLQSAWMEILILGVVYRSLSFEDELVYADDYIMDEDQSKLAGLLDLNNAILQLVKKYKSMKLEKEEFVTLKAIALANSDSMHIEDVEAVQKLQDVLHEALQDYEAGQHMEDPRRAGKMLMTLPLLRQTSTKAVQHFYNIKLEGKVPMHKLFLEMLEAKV
# Test: ERRE luciferase reporter assay in HEK293 cells transfected with pcDNA3.1 ERRγ
# Condition: 24 hours treatment, luciferase activity
# Method: HEK293 cells were maintained in Dulbecco's modified Eagles medium (DMEM) supplemented with 10% fetal bovine serum at 37° C. under 5% CO2. […] Cells were transfected with ERRE reporter construct and pcDNA3.1 ERRα or ERRγ. […] Luciferase activity was measured using the One-Glo Tox luciferase reporter assay system (Promega) and […] were calculated using GraphPad Prism software.
Readout Kind: EC50

Query Clc1ccccc1C1=NNC(c2ccc3ccccc3c2)C1 (stereo not drawn) [Entry 101] yields EC50 of < 1000 nM
